// MIC lookup, one value per entry
System: Staphylococcus aureus 503
Experiment: In Vitro Anti-Bacterial Activity Test (MIC, agar dilution)
Format: cell-based
Settings: Staphylococcus aureus 503; Muller-Hinton agar, 37° C., 18 hours; read-out: MIC
Counter-ions that a name gives are not always drawn.
measure-name: MIC

1. O=C(C[N+](=O)[O-])c1cn(C2CC2)c2c(Cl)c(N3CC4=C(CNC4)C3)c(F)cc2c1=O [Example 34, hydrochloride]	0.098 µg/mL
2. NC1CCN(c2c(F)cc3c(=O)c(C(=O)C[N+](=O)[O-])cn(CCF)c3c2F)C1 (stereo not shown) [Example 31, hydrochloride]	0.391 µg/mL
3. CC1CN(c2cc3c(cc2F)c(=O)c(C(=O)C[N+](=O)[O-])cn3-c2ccc(F)cc2F)CCN1 (stereo not shown) [Example 10, hydrochloride]	0.391 µg/mL
4. CCOC(=O)C(C(=O)OCC)C(=O)c1cn(C2CC2)c2c(F)c(N3CCC(N)C3)c(F)cc2c1=O (stereo not shown) [Example 20, hydrochloride]	0.025 µg/mL
5. CC1CN(c2c(F)cc3c(=O)c(C(=O)C[N+](=O)[O-])cn(C4CC4)c3c2F)CCN1 (stereo not shown) [Example 7, hydrochloride]	0.391 µg/mL
6. CNCC1=CCN(c2c(F)cc3c(=O)c(C(=O)CC#N)cn(C4CC4)c3c2Cl)C1 [Example 43, hydrochloride]	0.195 µg/mL
7. N#CCC(=O)c1cn(C2CC2)c2c(Cl)c(N3CC4=C(CNC4)C3)c(F)cc2c1=O [Example 44, hydrochloride]	6.25 µg/mL

---

Tested on: Klebsiella aerogenes 1522E
Test: In Vitro Anti-Bacterial Activity Test (MIC, agar dilution)
Type: cell-based
Conditions: Klebsiella aerogenes, 1522E, 18 h, Klebsiella aerogenes 1522E; Muller-Hinton agar, 37° C., 18 hours; read-out: MIC
Where a name gives a salt, the structure may show the parent alone.
measure-name: MIC (µg/mL)

1) CN[C@@H]1CCN(c2c(F)cc3c(=O)c(C(=O)C[N+](=O)[O-])cn(C4CC4)c3c2Cl)C1 [Example 61, hydrochloride]	0.013
2) CC1CN(c2cc3c(cc2F)c(=O)c(C(=O)C[N+](=O)[O-])cn3-c2ccc(F)cc2F)CCN1 (stereo not shown) [Example 10, hydrochloride]	1.56
3) CNCC1=CCN(c2c(F)cc3c(=O)c(C(=O)CS(C)(=O)=O)cn(C4CC4)c3c2Cl)C1 [Example 46, hydrochloride]	0.013
4) CCOC(=O)CC(=O)c1cn(C2CC2)c2c(Cl)c(N3CC[C@@H](N)C3)c(F)cc2c1=O [Example 26, hydrochloride]	0.049

---

Test system: Salmonella typhimurium
Test: In Vitro Anti-Bacterial Activity Test (MIC, agar dilution)
Assay type: cell-based
Conditions: Salmonella enterica; Salmonella typhimurium; Muller-Hinton agar, 37° C., 18 hours; read-out: MIC
Counter-ions that a name gives are not always drawn.
Binarize MIC at 0.01 µg/mL; below is t, at or above is f.

1) CN[C@@H]1CCN(c2c(F)cc3c(=O)c(C(=O)C[N+](=O)[O-])cn(C4CC4)c3c2Cl)C1 [Example 61, hydrochloride]	t
2) CCOC(=O)C(C(=O)OCC)C(=O)c1cn(C2CC2)c2c(Cl)c(N3CCC(NC)C3)c(F)cc2c1=O (stereo not drawn) [Example 57, hydrochloride]	f
3) CNCC1=CCN(c2c(F)cc3c(=O)c(C(=O)CC#N)cn(C4CC4)c3c2Cl)C1 [Example 43, hydrochloride]	f
4) Cc1c(N2CCC(N)C2)c(F)cc2c(=O)c(C(=O)C[N+](=O)[O-])cn(C3CC3)c12 (stereo not drawn) [Example 50, hydrochloride]	f
5) CNCC1=CCN(c2c(F)cc3c(=O)c(C(=O)C[N+](=O)[O-])cn(C4CC4)c3c2F)C1 [Example 15, hydrochloride]	t
6) CNC1CCN(c2c(F)cc3c(=O)c(C(=O)C[N+](=O)[O-])cn(C4CC4)c3c2OC)C1 (stereo not drawn) [Example 66, hydrochloride]	f
7) CCOC(=O)CC(=O)c1cn(C2CC2)c2c(F)c(N3CCC(N)C3)c(F)cc2c1=O (stereo not drawn) [Example 21, hydrochloride]	f
8) CCOC(=O)C(C(=O)OCC)C(=O)c1cn(C2CC2)c2c(Cl)c(N3CC[C@H](NC)C3)c(F)cc2c1=O [Example 56, hydrochloride]	t
9) CCOC(=O)CC(=O)c1cn(C2CC2)c2c(Cl)c(N3CC[C@@H](N)C3)c(F)cc2c1=O [Example 26, hydrochloride]	t

---

Test system: Escherichia coli 1507E
Assay: In Vitro Anti-Bacterial Activity Test (MIC, agar dilution)
Assay type: cell-based
Conditions: Muller-Hinton agar, 37° C., 18 hours, read-out: MIC
Where a name gives a salt, the structure may show the parent alone.
// MIC lookup, one value per entry
measure-name: MIC (ng/mL)

1. CCOC(=O)C(C(=O)OCC)C(=O)c1cn(C2CC2)c2cc(N3CCNCC3)c(F)cc2c1=O [Example 18, hydrochloride]	4
2. O=C(C[N+](=O)[O-])c1cn(C2CC2)c2cc(N3CCNCC3)c(F)cc2c1=O [Example 5, trifluoroacetate]	13
3. NC1CCN(c2c(F)cc3c(=O)c(C(=O)C[N+](=O)[O-])cn(CCF)c3c2F)C1 (centres unmarked) [Example 31, hydrochloride]	198
4. N[C@@H]1CCN(c2c(F)cc3c(=O)c(C(=O)C[N+](=O)[O-])cn(C4CC4)c3c2Cl)C1 [Example 12, hydrochloride]	4
5. CNCC1=CCN(c2c(F)cc3c(=O)c(C(=O)CC#N)cn(C4CC4)c3c2Cl)C1 [Example 43, hydrochloride]	12500
6. N[C@H]1CCN(c2c(F)cc3c(=O)c(C(=O)C[N+](=O)[O-])cn(C4CC4)c3c2Cl)C1 [Example 13, hydrochloride]	4
7. CCOC(=O)C(C(N)=O)C(=O)c1cn(C2CC2)c2c(Cl)c(N3CCC(N)C3)c(F)cc2c1=O (centres unmarked) [Example 52, hydrochloride]	4

---

Tested on: Escherichia coli 1507E
Assay: In Vitro Anti-Bacterial Activity Test (MIC, agar dilution)
Assay type: cell-based
Details: Escherichia coli, 1507E, 18 h, Muller-Hinton agar, 37° C.
Structures can show the parent of a compound that is named as a salt.
// MIC lookup, one value per entry
measure-name: MIC (µg/mL)

1. NC1CCN(c2nc3c(cc2F)c(=O)c(C(=O)C[N+](=O)[O-])cn3-c2ccc(F)cc2F)C1 (stereo not shown) [Example 8]	0.007
2. O=C(C[N+](=O)[O-])c1cn(C2CC2)c2c(Cl)c(N3CC4=C(CNC4)C3)c(F)cc2c1=O [Example 34, hydrochloride]	0.007
3. N#CC(C#N)C(=O)c1cn(C2CC2)c2c(Cl)c(N3CCC(N)C3)c(F)cc2c1=O (stereo not shown) [Example 45, hydrochloride]	0.195
4. CCOC(=O)C(C#N)C(=O)c1cn(C2CC2)c2c(Cl)c(N3CC=C(CNC)C3)c(F)cc2c1=O (stereo not shown) [Example 40, hydrochloride]	0.781

---

// MIC lookup, one value per entry
System: Escherichia coli DC2
Experiment: In Vitro Anti-Bacterial Activity Test (MIC, agar dilution)
Format: cell-based
Settings: Escherichia coli, DC2, 18 h
Procedure: The above in vitro antibacterial activity test was carried out in accordance with the agar culture medium dilution method (Hoechst 345) by using Muller-Hinton agar medium to determine the minimum inhibitory concentration (MIC). The strains having 10^7 C.F.U./ml were inoculated on the culture medium, and the growth of the strains was observed after incubating them at 37° C. for 18 hours, in which ciprofloxacin was used as a control antibacterial agent. […]
Where a name gives a salt, the structure may show the parent alone.
measure-name: MIC (µg/mL)

1) N[C@H]1CCN(c2c(F)cc3c(=O)c(C(=O)C[N+](=O)[O-])cn(C4CC4)c3c2Cl)C1 [Example 13, hydrochloride]	0.013
2) CS(=O)(=O)CC(=O)c1cn(C2CC2)c2c(Cl)c(N3CC4=C(CNC4)C3)c(F)cc2c1=O [Example 47, hydrochloride]	0.391
3) CNC1CCN(c2c(F)cc3c(=O)c(C(=O)C[N+](=O)[O-])cn(C4CC4)c3c2Cl)C1 (centres unmarked) [Example 63, hydrochloride]	0.025
4) C[C@@H]1CN(c2c(F)c(N)c3c(=O)c(C(=O)C[N+](=O)[O-])cn(C4CC4)c3c2F)C[C@H](C)N1 [Example 14, hydrochloride]	0.049
5) CCOC(=O)CC(=O)c1cn(C2CC2)c2c(Cl)c(N3CC=C(CNC)C3)c(F)cc2c1=O [Example 29, hydrochloride]	0.098
6) CCOC(=O)C(C(=O)OCC)C(=O)c1cn(C2CC2)c2c(Cl)c(N3CC[C@@H](N)C3)c(F)cc2c1=O [Example 23, hydrochloride]	0.049
7) CCn1cc(C(=O)C[N+](=O)[O-])c(=O)c2cc(F)c(N3CCC(N)C3)c(F)c21 (centres unmarked) [Example 30, hydrochloride]	0.195
8) NC1CCN(c2cc3c(cc2F)c(=O)c(C(=O)C[N+](=O)[O-])cn3-c2ccc(F)cc2F)C1 (centres unmarked) [Example 9, hydrochloride]	0.025
